- experimentalParameters: buffer; pH 7.4; 200.0 µM
# solubility kinetic listing for each entry below

Completed entries (count: 5):
CCCN1C(=O)/C(=C2/C=Cc3ccccc3N2CC)SC1=S :: < 0.4 µg/mL
CCOc1ccccc1N=Cc1c(O)c2ccccc2oc1=O :: < 0.7 µg/mL
Cc1nc2ncnn2c(C)c1Cc1cccc(C(F)(F)F)c1 :: > 45.9 µg/mL
COC(=O)c1ccc(N2CCN(C(=O)C3CC3)CC2)c([N+](=O)[O-])c1 :: > 50 µg/mL
O=C(COC(=O)c1c(F)cccc1Cl)NC1CCCC1 :: > 45 µg/mL

Qu. Return reported solubility kinetic; argument: CN(Cc1ccccc1)C(=O)C1CCN(S(C)(=O)=O)CC1
Ans. > 46.6 µg/mL

Qu. Return reported solubility kinetic; argument: Cc1nc([N+](=O)[O-])cn1CC(=O)c1ccc(F)cc1
Ans. > 39.5 µg/mL

Qu. Return reported solubility kinetic; argument: COc1ccc(-n2cnnc2SCC(=O)NC2CCCCC2)cc1
Ans. > 52 µg/mL

Qu. Return reported solubility kinetic; argument: CCN(CC)CCC#CC1(O)c2ccccc2-c2ccccc21
Ans. > 45.8 µg/mL

Qu. Return reported solubility kinetic; argument: O=C(C[n+]1ccccc1)Nc1ccc(Cl)c([N+](=O)[O-])c1.[Cl-]
Ans. > 49.2 µg/mL

Qu. Return reported solubility kinetic; argument: Cc1cc(C)cc(C(=O)NCCCN2CCOCC2)c1
Ans. > 41.5 µg/mL

Qu. Return reported solubility kinetic; argument: Cc1[nH]nc(SCC(=O)Nc2cccc(O)c2)c1[N+](=O)[O-]
Ans. > 46.2 µg/mL

Qu. Return reported solubility kinetic; argument: Cn1c(=S)[nH]c2scc(-c3cccs3)c2c1=O
Ans. > 42.1 µg/mL

Qu. Return reported solubility kinetic; argument: C=CCNC(=O)c1cnn(-c2ccccc2)c1-c1ccccc1
Ans. > 45.5 µg/mL

Qu. Return reported solubility kinetic; argument: COc1ccc(NC(=O)C2=NN(C3CCS(=O)(=O)C3)C(=O)CC2)cc1S(N)(=O)=O (centres undefined)
Ans. > 66.7 µg/mL

Qu. Return reported solubility kinetic; argument: Cc1cc(C)c(C#N)c(Nc2cccc(Br)c2)n1
Ans. < 0.2 µg/mL

Qu. Return reported solubility kinetic; argument: COc1c(C)cc(C(=O)C2CCCN(C(=O)c3cc4nc(C)cc(C)n4n3)C2)cc1C (centres undefined)
Ans. > 63.1 µg/mL

Qu. Return reported solubility kinetic; argument: CCc1ccc(N2CC(C(=O)OCC(=O)NC3CC3)CC2=O)cc1 (centres undefined)
Ans. > 49.6 µg/mL

Qu. Return reported solubility kinetic; argument: CN(CCC(=O)Nc1ccc(Cl)cc1)Cc1ccccc1.Cl
Ans. > 50.9 µg/mL

====

- experimentalParameters: buffer; pH 7.4; 200.0 µM
metric: solubility kinetic

Completed entries (count: 10):
NC(=O)COn1c(SCC(N)=O)nc2ccccc2c1=O :: > 0.0462 mg/mL
COc1ccc(NC(=O)Nc2cccc(C)n2)c(OC)c1 :: < 0.0002 mg/mL
O=C(O)Cc1ccc(-n2cccc2)cc1 :: > 0.0302 mg/mL
O=C(O)c1ccc(/C=N/n2cc(-c3ccccc3)[nH]c2=S)cc1 :: > 0.0485 mg/mL
O=C(c1cc([N+](=O)[O-])ccc1N1CCCC1)N1CCCC1 :: > 0.0434 mg/mL
O=C(NCCCc1ccccc1)N1CCOCC1 :: > 0.0372 mg/mL
CC(C)NC(=O)COCc1cc(-c2ccc3c(c2)OCO3)on1 :: > 0.0477 mg/mL
CN1CCN(C(=O)COc2ccc3ccccc3c2)CC1 :: > 0.0427 mg/mL
O=S(=O)(Cc1ccc(Cl)cc1)NCc1cccnc1 :: > 0.0445 mg/mL
COC(=O)c1sccc1NC(=O)c1c(F)c(F)c(F)c(F)c1F :: < 0.0008 mg/mL

Qu. Return reported solubility kinetic; argument: CC(C)C(OC(=O)c1cccs1)C(=O)NCc1ccc(F)cc1 (centres undefined)
Ans. > 0.0503 mg/mL

Qu. Return reported solubility kinetic; argument: Cc1cnc(=O)[nH]c1SCc1ccccc1F
Ans. > 0.0375 mg/mL

Qu. Return reported solubility kinetic; argument: CCN(CC)S(=O)(=O)c1cccc(NC2=NCC(C)S2)c1 (centres undefined)
Ans. > 0.0491 mg/mL

Qu. Return reported solubility kinetic; argument: CN(C(=O)CSc1ncnc2sc3c(c12)CCCC3)C1CCS(=O)(=O)C1 (centres undefined)
Ans. > 0.0617 mg/mL

====

- experimentalParameters: buffer; pH 7.4; 200.0 µM
Assign met to entries whose solubility kinetic meets or exceeds 30 µg/mL; assign not met to the rest.

Solved cases (10 shown):
COc1ccc(CCNCc2ccccc2)cc1.O=C(O)C(=O)O :: met
NC(=O)C1CCN(C(=O)c2ccc3ccccc3c2)CC1 :: met
O=C(c1ccc(F)cc1)C1CCN(Cc2ccc(F)cc2)CC1 :: met
Cc1nnc(SCC(=O)Nc2ccc(F)cc2)n(N)c1=O :: met
CC1(C)C2CCC1(C)C(OC(=O)C[n+]1ccccc1)C2.[Cl-] (stereo unspecified) :: met
CC(=O)c1cccc(OCC(=O)N2CCCc3ccccc32)c1 :: met
N/C(=N\OC(=O)c1ccncc1)c1cccc([N+](=O)[O-])c1 :: not met
COc1ccc([N+](=O)[O-])cc1NC(=O)COC(=O)Cn1cnc2ccccc2c1=O :: met
CC1CCCCC1NC(=O)CN1C(=O)COc2ccccc21 (stereo unspecified) :: not met
COc1ccc(C(=O)NCC(=O)N2CCCCC2)cc1OC :: met

Qu. Decide: is the reported value of solubility kinetic for COc1ccc(OCCn2ccnc2C)cc1.O=C(O)C(=O)O equal to or greater than 30 µg/mL?
Ans. met

Qu. Decide: is the reported value of solubility kinetic for CCOC(=O)Cc1csc(NC(=O)Nc2cccs2)n1 equal to or greater than 30 µg/mL?
Ans. not met

Qu. Decide: is the reported value of solubility kinetic for COc1ccccc1CC(=O)Nc1sc2c(c1C(N)=O)CCCC2 equal to or greater than 30 µg/mL?
Ans. not met

Qu. Decide: is the reported value of solubility kinetic for O=C(CN1C(=O)c2ccccc2C1=O)Nc1ccccc1N1CCOCC1 equal to or greater than 30 µg/mL?
Ans. met

====

- experimentalParameters: buffer; pH 7.4; 200.0 µM
Residues, ends and D or L forms follow the SMILES beside them. *: point of attachment. Piperidide = C1CCN(*)CC1; PhAc = O=C(Cc1ccccc1)*
# solubility kinetic listing for each entry below

Completed entries (count: 4):
CN(C)/C=C/C(=O)c1ccccc1 :: > 26.3 µg/mL
O=C(CNC(=O)Cc1ccccc1)NCC(=O)N1CCCCC1 (PhAc-Gly-Gly-Piperidide) :: > 47.6 µg/mL
Cc1cccc(NC(=O)CSc2n[nH]c(-c3cccnc3)n2)c1 :: > 48.8 µg/mL
O=C(Nc1cccc(F)c1)N1CCN(C(=O)c2ccco2)CC1 :: > 47.6 µg/mL

Qu. Return reported solubility kinetic; argument: FC(F)(F)c1ccc(-c2csc(-c3ccno3)n2)cc1
Ans. < 0.3 µg/mL

====

- experimentalParameters: buffer; pH 7.4; 200.0 µM
metric: solubility kinetic

CC(=O)Nc1ccc(S(=O)(=O)N(C)CC(=O)NCCOc2ccccc2)cc1 :: > 60.8 µg/mL
CN1C(=O)/C(=C/c2ccc(OCc3cccc(F)c3)cc2)NC1=S :: < 0.4 µg/mL
CC(=O)N1CCN(Cc2nc3ccc(Cl)cc3n2CCO)CC1 :: > 50.5 µg/mL
COC(=O)Cc1ccc(NC(=S)N2CCCCC2C)cc1 (configuration not stated) :: > 46 µg/mL

Qu. Return reported solubility kinetic; argument: CCN(CC(=O)Nc1c(F)cccc1F)C(=O)c1ccc(C#N)cc1
Ans. > 51.5 µg/mL

Qu. Return reported solubility kinetic; argument: O=C(COC(=O)c1ccc([N+](=O)[O-])o1)NC1CCCCC1
Ans. > 44.4 µg/mL

Qu. Return reported solubility kinetic; argument: COc1ccccc1NC(=O)/C=C/C(=O)O
Ans. > 33.2 µg/mL

====

# solubility kinetic listing for each entry below
- experimentalParameters: buffer; pH 7.4; 200.0 µM

Completed entries (count: 4):
CC(=O)N1CCN(CC(=O)Nc2cccc(S(=O)(=O)N3CCCCC3)c2)CC1 :: > 61.3 µg/mL
CC12CCC(C(=O)O)(c3nc4cc([N+](=O)[O-])ccc4nc31)C2(C)C (stereo unspecified) :: > 49.1 µg/mL
CCc1cc(C(=O)O)c(NC(=O)/C=C/c2ccc(OC)cc2)s1 :: > 49.7 µg/mL
CCC(=O)NC1OC(CO)C(O)C(O)C1O (stereo unspecified) :: > 35.3 µg/mL

Qu. Return reported solubility kinetic; argument: O=C(CN1CCOCC1)Nc1ccc(Cl)cn1
Ans. > 38.4 µg/mL

Qu. Return reported solubility kinetic; argument: CCc1nc(NC(=O)c2sc(C)nc2C)sc1C(=O)OC
Ans. > 48.8 µg/mL
